- Test system: Escherichia coli AB1157
- assay.name: MIC assay (microbroth dilution) ± 25 μM EPI
- Assay type: cell-based
- condition: Escherichia coli, AB1157, read-out: MICs (μg/ml) ± EPIs: None
experimental.endpoint: MIC (µg/mL)
Write it as a number; the unit µg/mL goes unstated.

CC[n+]1c(-c2ccccc2)c2cc(N)ccc2c2ccc(N)cc21 [Ethidium Br, Ethidium Bromide]	256
Cc1onc(-c2ccccc2Cl)c1C(=O)N[C@@H]1C(=O)N2[C@@H]1SC(C)(C)[C@@H]2C(=O)O	256
CCN1CCN(C(=O)N[C@@H](C(=O)N[C@@H]2C(=O)N3[C@@H]2SC(C)(C)[C@@H]3C(=O)O)c2ccccc2)C(=O)C1=O	4
CO[C@H]1/C=C/O[C@@]2(C)Oc3c(C)c(O)c4c(O)c(c(/C=N/N5CCN(C)CC5)c(O)c4c3C2=O)NC(=O)/C(C)=C\C=C\[C@H](C)[C@H](O)[C@@H](C)[C@@H](O)[C@@H](C)[C@H](OC(C)=O)[C@@H]1C	8
CO/N=C(\C(=O)N[C@@H]1C(=O)N2C(C(=O)O)=C(COC(C)=O)CS[C@H]12)c1csc(N)n1	0.1

*Q* Would you mind telling me what MIC value was observed for CC1=C(C(=O)O)N2C(=O)[C@@H](NC(=O)[C@H](N)c3ccccc3)[C@H]2SC1 ?
*A* 32

*Q* Would you mind telling me what MIC value was observed for CCn1cc(C(=O)O)c(=O)c2ccc(C)nc21 ?
*A* 16

*Q* Would you mind telling me what MIC value was observed for Cc1onc(-c2ccccc2)c1C(=O)N[C@@H]1C(=O)N2[C@@H]1SC(C)(C)[C@@H]2C(=O)O ?
*A* 512

*Q* Would you mind telling me what MIC value was observed for CN(C)c1ccc(C(=C2C=CC(=[N+](C)C)C=C2)c2ccc(N(C)C)cc2)cc1 ?
*A* 16

*Q* Would you mind telling me what MIC value was observed for CCn1cc(C(=O)O)c(=O)c2cc(F)c(N3CCNCC3)cc21 ?
*A* 0.063

====

MIC data for Klebsiella pneumoniae ATCC 700603 follow.
Write it as a number; the unit µg/mL goes unstated.

Example entries and their recorded answers appear below.
O=C(O)c1cn(C2CC2)c2cc(N3CCNCC3)c(F)cc2c1=O	0.29
CO/N=C(\C(=O)N[C@@H]1C(=O)N2C(C(=O)O)=C(COC(C)=O)CS[C@H]12)c1csc(N)n1	8
CCN1CCN(C(=O)N[C@@H](C(=O)N[C@@H]2C(=O)N3[C@@H]2SC(C)(C)[C@@H]3C(=O)O)c2ccccc2)C(=O)C1=O	113

*Q* Would you mind telling me what MIC value was observed for C[C@H]1COc2c(N3CCN(C)CC3)c(F)cc3c(=O)c(C(=O)O)cn1c23 ?
*A* 0.71

====

Recorded MIC (μg/ml) ± EPI: MBX2319 by entry
- System: Klebsiella pneumoniae ATCC 700603
- assay.name: MIC assay (microbroth dilution) ± 25 μM EPI
- Format: cell-based
- condition: + 25 μM MBX2319
Write it as a number; the unit µg/mL goes unstated.

Example entries and their recorded answers appear below.
CO/N=C(\C(=O)N[C@@H]1C(=O)N2C(C(=O)O)=C(COC(C)=O)CS[C@H]12)c1csc(N)n1 [CEF, cefotaxime]	8
C[C@H]1COc2c(N3CCN(C)CC3)c(F)cc3c(=O)c(C(=O)O)cn1c23 [Levofloxacin]	0.149

*Q* Would you mind telling me what MIC (μg/ml) ± EPI: MBX2319 value was observed for O=C(O)c1cn(C2CC2)c2cc(N3CCNCC3)c(F)cc2c1=O [Ciprofloxacin] ?
*A* 0.088

*Q* Would you mind telling me what MIC (μg/ml) ± EPI: MBX2319 value was observed for CCN1CCN(C(=O)N[C@@H](C(=O)N[C@@H]2C(=O)N3[C@@H]2SC(C)(C)[C@@H]3C(=O)O)c2ccccc2)C(=O)C1=O [Piperacillin, piperacillin] ?
*A* 113

FYI, the data here is from patent US9540389B2.
